// values below are reported apparent KD of MS2 coat protein
# System: MS2 coat protein
# ASSAY_SUMMARY: apparent KD of MS2 coat protein; higher = weaker reporter binding
# EXPERIMENTAL_PARAMETERS: Eterna round: R107; input ligand: theophylline 20 uM
Lab book: enter the figure in µM, no units written.

The cases that follow already have their apparent KD of MS2 coat protein on record.
ENTRY_SEQUENCE: GCUGAACAUGAGGAUCACCCAUGUCCGGAUACCAGCGGACCUCAUCGCCCUUGGCAGCCGAACCAACAGCUUGUGGUGUUCACUC [theeternabot_sameState_MS2_Theo_A_10]
NUMERIC_VALUE: 0.0582
//
ENTRY_SEQUENCE: ACGAUAGGACAUGAGGAUCACCCAUGUGAUACCAGCCUGGAAACAGGCCCUUGGCAGCACAAAUACUCCAGAAACCUAUCGAAUA [TheoAX2 #MicroSwitchBubble]
NUMERIC_VALUE: 0.294
//
ENTRY_SEQUENCE: GGUGGCGUGACGGAUACCAGCCACCACCGCAAGACCACAUGAGGAUCACCCAUGUUGGGUGGCCCUUGGCAGCUGUCGUGCGGCG [#1 Same State - Theophylline B Attempt #19 (HarryS)]
NUMERIC_VALUE: 0.331
//
ENTRY_SEQUENCE: GGACUAACUGGAAGGAGCGACACGCAGAAACUGCAAUUUCCUCCACACGAGGAUCACCCGUGUCAGGUAGGUCGCCAGUUAGUCG [ArgBX 29]
NUMERIC_VALUE: 0.052

Prompt: // lookup apparent KD of MS2 coat protein for AUACGUAACAGAAGGAGCGCACCGACAUGAGGAUCACCCAUGUGGGAUGGGACUCUUUUGGUGCAGGUAGGUCGCUGUCACGCAU [Beatattian]
Response: 0.0994

Prompt: Similarly, UAUCCACAUGAGGAUCACCCAUGUAGGGAAGGAGCGGUGGAUGCACCAGGUAGGUCGCCUUGCUGAGGACAGCCGGUGGAUUCGU [Exclusion - Arginine A (Freestyle 27)] ?
Response: 0.0596

Prompt: Similarly, GCAUUACAUGAGGAUCACCCAUGUCUAGAUACCAGAUUUGUUUGAAUCCCUUGGCAGCUAGUGGACCACCGUACACGACAUACUA [theeternabot_sameState_MS2_Theo_A_17] ?
Response: 0.0471

Prompt: Similarly, GGAUGAAACUGAAGGAGCGAGAUCACAAGAUUGGGUCUAACAUGAGGAUCACCCAUGUAAUCUCAGGUAGGUCGCAGUGUCCCUU [Exclusion Arginine B GF 12] ?
Response: 0.042

Prompt: Similarly, GACCUUGCCUGAAGGAGCGAGGUAAAUAGGGUUGAGCAUACAUGAGGAUCACCCAUGUGGCCUCAGGUAGGUCGCAGGUAGGACA [Exclusion Arginine B GF30] ?
Response: 0.224

Prompt: Similarly, AGCGUGCAUAGGAAAACUAUGUACGCAAAUCGAGGACCGGUACGGCCGCCACUCGUCCUCAACAUGAGGAUCACCCAUGUAAUAA [Mat - Exclusion - Trytophan A - D9] ?
Response: 0.0267

Prompt: Similarly, UACAUGAGGAUCACCCAUGUAUGAAUAGAUACCAGCGAAAAUAAGCGCCCUUGGCAGCUAGUGAAUAAAGGGUGGGUAAAAUAAU [Exclusion Theophyline A GF 2] ?
Response: 0.0136

Prompt: Similarly, GGAGUAGGAAACUAUUCCAAUCCUCGUGAACGAGGACCGGUACGGCCGCCACUCGAUAAAUAAAUACAUGAGGAUCACCCAUGUU [Ex Tryptophan A 23] ?
Response: 0.0714

====

// values below are reported apparent KD of MS2 coat protein
# Tested on: MS2 coat protein
# ASSAY_SUMMARY: apparent KD of MS2 coat protein; designed switch direction (-1 OFF switch, 1 ON switch): -1; higher = weaker reporter binding
# EXPERIMENTAL_PARAMETERS: input ligand: FMN 200 uM
The number alone won't do; follow it with the unit.

ENTRY_SEQUENCE: GCCUCGUCAGGAUAUCUCCACGUGAGCAAGGCUCACGGGCCAGAGAAGGGACUUGAGGAUCACCCAAGUAAAAC [Ritiatso] (Eterna round: R97, puzzle: Exclusion 4)
SYSTEM: MS2 coat protein
OBSERVED_PROPERTY: apparent KD of MS2 coat protein
RESULT: 428 nM

Prompt: // lookup apparent KD of MS2 coat protein for AAUUAACAUCAGGAUAUGACUAGCCUCGGCUAGUCAGAAGGGAUGACAUGAGGAUCACCCAUGUGAUCAAUUAA [E6/2-A2] (Eterna round: R97, puzzle: Exclusion 6)
Response: 392 nM

====

// values below are reported apparent KD of K4 kissing-loop reporter
# Tested on: K4 kissing-loop RNA reporter;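 also: bound reporter read as fluorescence of individual clusters on recovered sequencing chips by microscopy, with normalized cluster intensities fitted with a binding model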
# ASSAY_SUMMARY: apparent KD of K4 kissing-loop reporter; higher = weaker reporter binding
# EXPERIMENTAL_PARAMETERS: Eterna round: R107; input ligand: arginine 13.2 mM
Lab book: enter the figure in nM, no units written.

ENTRY_SEQUENCE: UUAAUAAUUCAAGGAUAUGUUUUUUUUUUCGAGUGAUGUUCGGAAUUAAUAAAUUUAAAAGAUUAUACAGAAGGUGAUAAAUAGU [Cynwulf-mod#1]
OBSERVED_PROPERTY: apparent KD of K4 kissing-loop reporter
UOM: nM
NUMERIC_VALUE: 91
//
ENTRY_SEQUENCE: ACAUUAGCGAGUGAUGUUCGCUAAGACGAAGGAGCGCUCGCGAGAGCAGGUAGGUCGCGUCUAGUGUCACUGUACUAAAUAGUGA [Arg A SS t12]
OBSERVED_PROPERTY: apparent KD of K4 kissing-loop reporter
UOM: nM
NUMERIC_VALUE: 164
//
ENTRY_SEQUENCE: CAUAAAAGGUGGAAGACGAAUCGGUGUCGCCGAGGACCGGUACGGCCGCCACUCGGUCAUCAAAUCCUUCCCGAGUGAUGUUCGA [theeternabot_sameState_KL_Trp_A_5]
OBSERVED_PROPERTY: apparent KD of K4 kissing-loop reporter
UOM: nM
NUMERIC_VALUE: 439
//
ENTRY_SEQUENCE: GUAUGUGGAAACACGUACUUAUAUCCUAAGCAGGAUAUGCGGAAACGCAGAAGGGCUACCAACGAGUUUACCCAGUGAUGUUGGG [Ex FMN A 14]
OBSERVED_PROPERTY: apparent KD of K4 kissing-loop reporter
UOM: nM
NUMERIC_VALUE: 260

Next up:
Prompt: // lookup apparent KD of K4 kissing-loop reporter for UUGUUUUACUGAAGGAGCGGCAAUUGAUACGUAGAUAUAGUGAUGUUAUAUAAGAUAGAGAGCCAGGUAGGUCGCAGAUGUGUUU [ExArgB.T]
Response: 205

====

# Test system: MS2 coat protein
# ASSAY_SUMMARY: apparent KD of MS2 coat protein; higher = weaker reporter binding
# EXPERIMENTAL_PARAMETERS: Eterna round: R107; input ligand: none
OBSERVED_PROPERTY: apparent KD of MS2 coat protein
The number alone won't do; follow it with the unit.

ENTRY_SEQUENCE: AACGUGAACGUGGUAUACCCGUGUGCCGAAGGAGCGCCCGUAAGGGCAGGUAGGUCGCGGUCGACAUGAGGAUCACCCAUGUUUG
apparent KD of MS2 coat protein: 74.6 nM
--
ENTRY_SEQUENCE: UGUAUGUGAUCUGAUACCAGAGAUGAUAACCUGAGGAUCACCCUGGUAAGGCGAAAGCCACUCCCUUGGCAGCAGAUCGCAUACU
apparent KD of MS2 coat protein: 34.4 nM

Prompt: // lookup apparent KD of MS2 coat protein for AACUGGAUCAGUGAUACCAGAGACAUGAGGAUCACCCAUGUACAUGAGGAUCACCCAUGUCUCCCUUGGCAGCACAGCAGGGAGC [Exclusion Theophylline B GF 17]
Response: 70 nM

Prompt: Similarly, UUUAACGGGCACGAUACCAGCGACAUGAGGAUCACCCAUGUAAACGCGGUGACGGUCUGUUGCCCUUGGCAGCGUGCAAAAUAAU [Zaquarar] ?
Response: 67.6 nM

====

# System: MS2 coat protein
# ASSAY_SUMMARY: apparent KD of MS2 coat protein; designed switch direction (-1 OFF switch, 1 ON switch): -1; higher = weaker reporter binding
# EXPERIMENTAL_PARAMETERS: input ligand: none
// values below are reported apparent KD of MS2 coat protein
Lab book: enter the figure in nM, no units written.

The cases that follow already have their apparent KD of MS2 coat protein on record.
ENTRY_SEQUENCE: AUUAAACAUGUAGGAUAUGCGUGGCAAAGCUAUGCAGAAGGACAUGAGGAUCACCCAUGUAAAAGCGUCUGCGUACAGAUGCAA [Mat - Exclusion NG 1 - Mod of JL - D86] (Eterna round: R96, puzzle: Exclusion NG 1)
UOM: nM
NUMERIC_VALUE: 41.3
//
ENTRY_SEQUENCE: UAUAACCAAGGAUAUACAUGAGGAUCACCCAUGUAAUAUAAAAUAAAAUAAAUAAAAUGUAGAAGGUGGGAUAU (Eterna round: R97, puzzle: Exclusion 3)
UOM: nM
NUMERIC_VALUE: 37.6
//
ENTRY_SEQUENCE: AUUUAUAAUGUAGGAUAUGGAUUCGAAACGUAUCCAGAAGGACAUGAGGAUCACCCAUGUACAUGAGGAUCACCCAAUUUAUUA [Fiskers ExNg1 - 10] (Eterna round: R96, puzzle: Exclusion NG 1)
UOM: nM
NUMERIC_VALUE: 59.3
//
ENTRY_SEQUENCE: AAUAAGAAGUAAGGAUAUCUGAAAGGAAGUGUAAGAGAAGGUACGGUGACGUCAGAACGACAUGAGGAUCACCCAUGUAAAGAA [PowerStrip EXNG 1.11] (Eterna round: R96, puzzle: Exclusion NG 1)
UOM: nM
NUMERIC_VALUE: 93.9
//
ENTRY_SEQUENCE: CCGUCAUCAGGAUAUCCACAUCUCUACAUGAGGAUCACCCAUGUAAGCUUGGGUAAUAGCGGAGAAGGGAUAGACU [Eternabot (Original) Solution 20] (Eterna round: R97, puzzle: Exclusion 5)
UOM: nM
NUMERIC_VALUE: 57.5

Prompt: // lookup apparent KD of MS2 coat protein for CUGUGCACGCUGCGAUCCUACAUGAGGAUCACCCAUGUGGUCUGGUGGCGUGGGUCACCGGACUUGGCUCGUCUUGC [salish99_S_TOV1_R5_071] (Eterna round: R97, puzzle: Sensor, turn-off variant 1)
Response: 31.6
